test_target: T1, pKal catalytic domain Mutant 2 (human, UniProt P03952 391-638, limits assumed)
T1 construct: catalytic domain with His tag from Pichia pastoris
T1 sequence (P03952 other isoform, or with tags, fused parts or gaps mutant limits assumed): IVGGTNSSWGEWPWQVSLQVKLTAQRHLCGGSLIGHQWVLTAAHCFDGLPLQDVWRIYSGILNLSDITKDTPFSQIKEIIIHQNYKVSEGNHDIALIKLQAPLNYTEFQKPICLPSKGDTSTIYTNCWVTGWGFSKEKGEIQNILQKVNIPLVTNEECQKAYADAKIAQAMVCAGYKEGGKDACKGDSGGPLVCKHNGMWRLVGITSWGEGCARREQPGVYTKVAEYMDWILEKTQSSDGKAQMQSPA
test_method_notes: Ki,app, enzyme inhibition
pKi: −log10 of the molar value.
Classify as follows. Reported pKi greater than or equal to 9: T. Reported pKi below: F.

For this binder, is measured pKi 9 or higher? X115-F02 (Fab, V domains shown, also called 559A-X115-F02; 559A-X0115-F02) VH: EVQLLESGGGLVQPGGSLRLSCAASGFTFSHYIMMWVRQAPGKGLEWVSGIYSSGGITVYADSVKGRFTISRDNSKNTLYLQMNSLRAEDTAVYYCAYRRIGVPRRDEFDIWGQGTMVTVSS VL: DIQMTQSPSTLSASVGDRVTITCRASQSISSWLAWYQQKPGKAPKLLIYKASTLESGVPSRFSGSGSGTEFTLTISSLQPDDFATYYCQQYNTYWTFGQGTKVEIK
F

For this binder, is measured pKi 9 or higher? X115-G04 (antibody, V domains shown, also called 559A-X115-G04; 559A-X0115-G04) VH: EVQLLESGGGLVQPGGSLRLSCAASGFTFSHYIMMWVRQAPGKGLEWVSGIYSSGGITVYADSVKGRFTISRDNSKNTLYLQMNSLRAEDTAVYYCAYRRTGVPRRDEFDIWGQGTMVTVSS VL: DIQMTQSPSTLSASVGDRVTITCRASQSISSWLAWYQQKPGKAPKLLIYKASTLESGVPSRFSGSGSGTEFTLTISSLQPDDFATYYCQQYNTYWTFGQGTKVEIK
F

For this binder, is measured pKi 9 or higher? M29-D09 (Fab, V domains shown, also called 559A-M29-D09 (sFab); 559A-M0029-D09) VH: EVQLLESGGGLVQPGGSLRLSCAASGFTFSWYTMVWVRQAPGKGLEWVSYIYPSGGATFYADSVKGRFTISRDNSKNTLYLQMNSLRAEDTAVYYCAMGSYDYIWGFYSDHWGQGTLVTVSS VL: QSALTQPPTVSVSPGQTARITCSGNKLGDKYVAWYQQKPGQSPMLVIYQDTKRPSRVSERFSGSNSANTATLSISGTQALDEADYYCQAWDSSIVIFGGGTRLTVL
T

For this binder, is measured pKi 9 or higher? M6-D09 (Fab, V domains shown, also called M06-D09; 559A-M06-D09) VH: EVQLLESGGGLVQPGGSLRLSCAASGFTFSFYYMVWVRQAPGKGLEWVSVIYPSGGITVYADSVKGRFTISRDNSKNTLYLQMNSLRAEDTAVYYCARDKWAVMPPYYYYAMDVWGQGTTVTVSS VL: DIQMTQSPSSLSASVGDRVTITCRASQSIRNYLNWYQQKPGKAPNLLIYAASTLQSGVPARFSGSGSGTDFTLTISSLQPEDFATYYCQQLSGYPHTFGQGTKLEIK
F

For this binder, is measured pKi 9 or higher? X115-D01 (antibody, V domains shown, also called 559A-X115-D01; 559A-X0115-D01) VH: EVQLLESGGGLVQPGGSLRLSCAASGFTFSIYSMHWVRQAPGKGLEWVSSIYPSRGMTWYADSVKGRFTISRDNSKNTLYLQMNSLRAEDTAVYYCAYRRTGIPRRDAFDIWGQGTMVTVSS VL: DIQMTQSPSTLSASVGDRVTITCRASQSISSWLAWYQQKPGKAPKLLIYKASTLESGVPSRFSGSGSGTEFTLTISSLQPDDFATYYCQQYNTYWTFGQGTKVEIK
F

For this binder, is measured pKi 9 or higher? M145-D11 (Fab, V domains shown, also called 559A-M145-D11 (sFab); 559A-M0145-D11) VH: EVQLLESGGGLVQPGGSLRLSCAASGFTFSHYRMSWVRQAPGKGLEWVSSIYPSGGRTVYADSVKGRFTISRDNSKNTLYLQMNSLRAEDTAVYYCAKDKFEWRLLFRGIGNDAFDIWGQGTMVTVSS VL: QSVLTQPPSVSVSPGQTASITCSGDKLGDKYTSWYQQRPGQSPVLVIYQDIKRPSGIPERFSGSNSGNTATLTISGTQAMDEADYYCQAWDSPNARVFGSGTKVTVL
T
